Biological target: rat TAAR1 (Rattus norvegicus (Rat), UniProt Q923Y9)
Sequence (Q923Y9 whole entry): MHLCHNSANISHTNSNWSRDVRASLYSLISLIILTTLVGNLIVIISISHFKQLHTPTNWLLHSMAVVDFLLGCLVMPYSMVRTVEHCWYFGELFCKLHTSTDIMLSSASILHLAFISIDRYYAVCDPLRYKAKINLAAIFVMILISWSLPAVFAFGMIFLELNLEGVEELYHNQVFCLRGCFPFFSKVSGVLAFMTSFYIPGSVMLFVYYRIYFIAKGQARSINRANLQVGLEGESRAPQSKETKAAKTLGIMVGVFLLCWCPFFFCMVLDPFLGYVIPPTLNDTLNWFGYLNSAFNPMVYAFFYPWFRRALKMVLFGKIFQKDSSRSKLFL
Test: Radioligand binding assay on rat TAAR1
Conditions: rat TAAR1 (second value of the cell), HEK-293 membranes; read-out: Ki (μM) mouse/rat
Where a name gives a salt, the structure may show the parent alone.
# reported Ki; entries follow
Property Name: Ki (µM)

INSERT INTO assay_data (molecule, recorded_number) VALUES
  ('COc1cccc(CNc2ccc([C@H]3CNCCO3)cc2)n1', 0.561),
  ('Cc1ccc(CNc2ccc([C@H]3CNCCO3)cc2)cc1', 0.468),
  ('FC(F)(F)COc1cnc(Nc2ccc([C@@H]3CNCCO3)c(Cl)c2)nc1', 0.0017),
  ('Cc1cc(C(F)(F)F)nc(Nc2ccc([C@@H]3CNCCO3)cc2)n1', 0.0298),
  ('Clc1cc(Nc2ncc(C3CC3)cn2)ccc1[C@H]1CNCCO1', 0.0196),
  ('Cc1cc(C2CNCCO2)ccc1Nc1ncc(Cl)cn1 (racemic)', 0.203),
  ('FC(F)(F)c1cnc(Nc2ccc([C@@H]3CNCCO3)cc2)nc1', 0.0223),
  ('Fc1cc([C@H]2CNCCO2)ccc1Nc1ncc(C(F)(F)F)cn1', 0.0198),
  ('c1cc([C@H]2CNCCO2)ccc1Nc1ccc(C2COC2)cn1', 0.34),
  ('Cc1cc(C)nc(Nc2ccc(C3CCNC3)cc2)n1 (racemic) [Example 1, hydrochloride]', 1.51);
